# Tested on: BT-549 breast
# assayText: NCI tumour cell line growth inhibition, 48 h
Where a SMILES comes first, the peptide text is derived from it. [ ]: non-standard residue; d: D form. The star is where a group is joined. Hyp = O=C(O)[CH]1C[CH](O)CN1; Cbz = O=C(OCc1ccccc1)*
Below, each of the compounds is paired with its reported TGI value.

So for NC(=O)CNC(=O)C1CC(O)CN1C(=O)C1CCCN1C(=O)OCc1ccccc1 (stereo not drawn) (Cbz-Pro-[Hyp]-Gly-NH2; configuration not given here) , the logged TGI turned out to be > 100 µM

So for Cc1ccc([N+](=O)[O-])cc1S(=O)(=O)Nc1ccc(C2=NN(C(=O)c3ccccc3)C(c3ccccc3O)C2)cc1 (centres undefined) , the logged TGI turned out to be 30.7 µM

So for `CCOC(=O)/C=C/C1=C(Br)[C@@]2(C)CC[C@@H]3c4ccc(O)cc4CC[C@H]3[C@@H]2C1` , the logged TGI turned out to be 27.3 µM

So for `COc1ccc(-n2nc(C(=O)NCC(=O)Nc3nc4cc(OC)ccc4s3)c3ccccc3c2=O)cc1` , the logged TGI turned out to be 25.9 µM

====

Below, each of the molecules is paired with its reported TGI value.
# Tested on: HOP-62 NSCLC
# assayText: NCI tumour cell line growth inhibition, 48 h

# annotated cases, reported TGI shown
[[record]]
molecule = "CC(NC(=O)c1ccc(OP(=O)(OCc2ccc([N+](=O)[O-])o2)N(C)CCCCCl)cc1)c1ccc(OCC2CCCCC2)c(C(N)=O)c1 (stereo not drawn)"
testedsystem = "HOP-62 NSCLC"
quantity = "TGI"
measuredresult = "36.7 µM"

[[record]]
molecule = "CSc1ccc(NC(=O)CCl)cc1"
testedsystem = "HOP-62 NSCLC"
quantity = "TGI"
measuredresult = "> 10 µM"

[[record]]
molecule = "COC(=O)CCC(=O)Nc1cc(C)ccc1C"
testedsystem = "HOP-62 NSCLC"
quantity = "TGI"
measuredresult = "> 100 µM"

[[record]]
molecule = "Clc1cccc(/C=c2\\nc(-c3ccccc3)n3c2nc2ccccc23)c1"
testedsystem = "HOP-62 NSCLC"
quantity = "TGI"
measuredresult = "> 100 µM"

[[record]]
molecule = "COc1ccc(/C=N/NC(=O)CSc2nc(-c3ccccc3)c(-c3ccccc3)[nH]2)cc1OC"
testedsystem = "HOP-62 NSCLC"
quantity = "TGI"
measuredresult = "72.5 µM"


So for `Cc1c(-c2cc(-c3ccccc3)n[nH]c2=O)c2ccccc2n1C` , the logged TGI turned out to be > 100 µM

So for CCC1C[N+]2=C(c3cc(OC)c(OC)cc3CC2)c2c1cc1n2CCc2cc(OC)c(OC)cc2-1 (stereo not drawn) , the logged TGI turned out to be 26.5 µM

So for `Cc1c2ccccc2cc2cccc[n+]12` , the logged TGI turned out to be > 100 µM

So for O=C(O)C(C(F)(F)F)C(F)(F)F (tested in a mixture with another compound) , the logged TGI turned out to be > 100 µM

So for `COc1ccc2cn3c4ccc(O)cc4[nH]c(=O)c3c2c1` , the logged TGI turned out to be 17.3 µM

So for `COc1ncc(-c2ccc3ncnc(Nc4cccc(Cl)c4)c3c2)cc1NS(C)(=O)=O` , the logged TGI turned out to be 42.4 µM

So for Cc1ccc(C2SCc3nc4ccccc4n32)cc1 (stereo not drawn) , the logged TGI turned out to be 23.7 µM
